# study system: T1, human VEGF-A (human, UniProt P15692-4 27-191, limits assumed)
# T1 construct: also called huVEGF-A
# T1 sequence (P15692 other isoform, or with tags, fused parts or gaps limits assumed): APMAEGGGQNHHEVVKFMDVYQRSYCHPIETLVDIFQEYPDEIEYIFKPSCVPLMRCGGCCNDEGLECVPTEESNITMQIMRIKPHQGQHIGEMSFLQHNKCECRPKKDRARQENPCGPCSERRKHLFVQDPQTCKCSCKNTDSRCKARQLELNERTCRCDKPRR
# test summary: SPR (Biacore), antibody captured by anti-human Fc, VEGF-A injected
Reported kon values are given for each entry in this list.
Quick reminder: number only, in M⁻¹ s⁻¹, skip the unit.

hBEW-5C3.4 (antibody, V domains shown, Humanized IgG made from pHybE vectors in HEK293 cells) VH: EIQLVQSGSELKKPGASVKVSCKASGYTFTNYGVYWVKQAPGQGLEYMGWINTETGKPTYADDFKGRFVFSLDTSVSTAYLQISSLKAEDTAVYYCARARQLDWFVYWGQGTLVTVSS VL: DTQLTQSPSSLSASVGDRVTISCRARESLTTSLSWFQQKPGKQPKLLIYGASKLESGVPSRFSGSGSGTDFTLTISSLQPEDFATYFCQQSWYDPPTFGGGTKVEIK ... 9.9e+06
hBDB-4G8.14 (antibody, V domains shown, Humanized IgG made from pHybE vectors in HEK293 cells) VH: EIQLVQSGGGVVQPGGSLRLSCAASGYTFTNYGMYWVKQAPGKGLEYMGWINTETGKPTYADDFKGRFTFSLDTSKSTAYLQLNSLRAEDTAVYFCARTNYYYRSYIFYFDYWGQGTLVTVSS VL: DTVLTQSPSTLSASPGERATISCRASESVSTHMHWYQQKPGQAPKLLIYGASNLESGVPSRFSGSRSGTDFTLTISSLQPEDFAVYFCQQSWNDPFTFGQGTKVEIK ... 1.5e+07
hBDB-4G8.1 (antibody, V domains shown, Humanized IgG made from pHybE vectors in HEK293 cells) VH: EVQLVQSGSELKKPGASVKVSCKASGYTFTNYGMYWVRQAPGQGLEWMGWINTETGKPTYADDFKGRFVFSLDTSVSTAYLQISSLKAEDTAVYYCARTNYYYRSYIFYFDYWGQGTMVTVSS VL: AIQLTQSPSSLSASVGDRVTITCRASESVSTHMHWYQQKPGKAPKLLIYGASNLESGVPSRFSGSGSGTDFTLTISSLQPEDFATYYCQQSWNDPFTFGQGTKLEIK ... 1.8e+07
hBEW-9A8.9 (antibody, V domains shown, Humanized IgG made from pHybE vectors in HEK293 cells) VH: EVQLVQSGAEVKKPGASVKVSCKASGYTFTNYGMYWVRQAPGQGLEWMGWINTETGKPIYADDFKGRVTMTTDTSTSTAYMELRSLRSDDTAVYYCARVDYDGSFWFAYWGQGTLVTVSS VL: EIVLTQSPDFQSVTPKEKVTITCRASESVSTVIHWYQQKPDQSPKLLIKGASNLESGVPSRFSGSGSGTDFTLTINSLEAEDAATYYCQQHWNDPPTFGQGTKLEIK ... 1e+07

API: the following record is the query input.
IN: Please list kon recorded for the binder hBEW-9E10.5 (antibody, V domains shown, Humanized IgG made from pHybE vectors in HEK293 cells) VH: EIQLVQSGAEVKKPGSSVKVSCKASGYTFTNYGMYWVKQAPGQGLEYMGWIDTETGRPTYADDFKGRFTFTADKSTSTAYMELSSLRSEDTAVYFCARWSGDTTGIRGPWFAYWGQGTLVTVSS VL: DIRMTQSPSSLSASVGDRVTITCLASEDIYSDLAWYQQKPGKSPKLLIYNANGLQNGVPSRFSGSGSGTDYTLTISSLQPEDVATYFCQQYNYFPGTFGQGTKLEIK
OUT: 1.6e+07
